Hello, the source for this data is the supplement of paper PMC6755084, in case you need it.

B1: minF1; a variant is named by its letters at N, in order (parent)
chain: GAGACCGCAACTGAAAAGTTGTTNNNNAANNNNGGNTNNATTTCTGCACGTAGAAGCAAAAGGC

variants of: B1; assay: fraction ligated after 30 min (ligated reads / total reads); higher = more ligase activity; settings: with F1*subA RNA substrate (template-directed ligation), 42 °C
REPORTED PROPERTY: fraction ligated
Please give the numeric answer without any surrounding text.

Requested read-out: fraction ligated. Entry: "ATCATGTGTGA"
0.00648

Requested read-out: fraction ligated. Entry: "TCGAGGAGTGA"
0.00338

Requested read-out: fraction ligated. Entry: "ACAGTGGAGTA"
0.00375

Requested read-out: fraction ligated. Entry: "TCAGGGATTGA"
0.00138

// switching to the query variant
Requested read-out: fraction ligated. Entry: "CAGATGATGTA"
0.00303
